system-tested: bFGF (basic fibroblast growth factor)
particulars: 3'-amino-modifier C7 conjugated to PEG 3400 [3' end after position 19: NN = non-nucleotide 3'-amino-modifier C7 and PEG 3400, left out]; binding assay with 5'-32P-labeled conjugate; assay type not stated
attribute-measured: Kd (nM)

In [3]: df
Out[3]:
                          sequence_input  observed_result
0  GGGCTTTGTAAAACCCCGC [225T3N-PEG-3400]                1

---

system-tested: bFGF (basic fibroblast growth factor)
particulars: 3'-tetraethyleneglycol cholesterol; binding assay with 5'-32P-labeled conjugate; assay type not stated
pKd: −log10 of the molar value.
attribute-measured: pKd

>>> print(df.to_string())
                     sequence_input                          system_tested  observed_result
0  GGGCTTTGTAAAACCCCGC [225t3-Chol]  bFGF (basic fibroblast growth factor)             9.00
